system-name: Sodium-dependent dopamine transporter (Homo sapiens) (UniProt Q01959)
Sequence (Q01959 whole entry): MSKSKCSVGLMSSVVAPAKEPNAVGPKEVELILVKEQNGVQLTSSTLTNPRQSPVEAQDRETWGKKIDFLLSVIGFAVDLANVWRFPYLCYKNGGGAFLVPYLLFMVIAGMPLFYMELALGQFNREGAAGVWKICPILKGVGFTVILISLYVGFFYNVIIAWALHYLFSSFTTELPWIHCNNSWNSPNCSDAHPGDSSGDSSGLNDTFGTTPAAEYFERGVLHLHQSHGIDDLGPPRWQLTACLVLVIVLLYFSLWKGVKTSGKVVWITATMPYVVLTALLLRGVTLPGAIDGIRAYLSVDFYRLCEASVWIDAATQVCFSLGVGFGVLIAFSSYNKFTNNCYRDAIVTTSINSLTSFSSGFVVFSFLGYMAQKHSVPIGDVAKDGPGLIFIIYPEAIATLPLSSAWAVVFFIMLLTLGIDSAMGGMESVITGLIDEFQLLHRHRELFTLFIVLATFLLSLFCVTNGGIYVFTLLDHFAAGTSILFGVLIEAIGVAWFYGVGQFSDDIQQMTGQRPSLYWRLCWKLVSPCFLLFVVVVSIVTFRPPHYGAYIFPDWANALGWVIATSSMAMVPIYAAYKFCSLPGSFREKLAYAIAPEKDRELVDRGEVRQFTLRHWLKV
experimental-conditions: Compound concentration 10 µM
Description: PDSP Primary Binding target: SLC6A3 - Compounds are tested at 10 uM concentration, plate are incubated at room temperature in the dark for 90 minutes. Reaction are stopped by vacuum filtration onto 0.3% polyethyleneimine soaked filter mats using Filtermate harvester. Scintilation cocktail is then melted onto microwave-dried filters on a hot plate and the radio activity is counted in Microbia counter.
Class (by inhibition) -- low = under 30%, mid = from 30% up to 50%, high = 50% and over

# compound, classification
data = [
    ("N#Cc1ccc2[nH]cc(CCCCN3CCN(c4ccc5oc(C(N)=O)cc5c4)CC3)c2c1", "high"),
    ("CCc1cc2c(cc1CC)CC(NC[C@H](O)c1ccc(O)c3[nH]c(=O)ccc13)C2", "high"),
    ("COc1cc2c(CCNC(C)=O)c[nH]c2cc1Cl", "low"),
    ("O=c1ccn([C@@H]2O[C@H](COP(=O)(O)OP(=O)(O)OP(=O)(O)O)[C@@H](O)[C@H]2O)c(=O)[nH]1", "low"),
    ("C[C@H](CO)Nc1nc(SCc2cccc(Cl)c2F)nc2[nH]c(=O)sc12", "low"),
]

Exam item: // return the class label for COC(=O)C1=C(C)NC(C)=C(C(=O)OCCCN2CCC(c3ccccc3)(c3ccccc3)CC2)[C@H]1c1cccc([N+](=O)[O-])c1
Marked response: high

---

system-name: Sodium-dependent dopamine transporter (Homo sapiens) (UniProt Q01959)
experimental-conditions: Compound concentration 10 µM; call rule not given here
Returns: one label drawn from t for active, f for inactive

Solved entries (count: 3):
# compound, system-name, classification
records = [
    ("COc1cc2nc(N3CCN(C(=O)c4ccco4)CC3)nc(N)c2cc1OC", "Sodium-dependent dopamine transporter (Homo sapiens) (UniProt Q01959)", "f"),
    ("c1cc(CN2CCCNCCNCCCNCC2)ccc1CN1CCCNCCNCCCNCC1", "Sodium-dependent dopamine transporter (Homo sapiens) (UniProt Q01959)", "t"),
    ("C=CCN1C[C@H](C)N([C@H](c2ccc(C(=O)N(CC)CC)cc2)c2cccc(O)c2)C[C@H]1C", "Sodium-dependent dopamine transporter (Homo sapiens) (UniProt Q01959)", "f"),
]

Could you now look at the following compound, please?
Exam item: GET /call?item= COc1cc(-n2cnc3cc(-c4ccc(Cl)cc4)sc3c2=O)ccc1OCCN1CCCC1 returns the recorded outcome of this test.
Marked response: t

---

system-name: Alpha-2A adrenergic receptor (Homo sapiens) (UniProt P08913)
Sequence (P08913 whole entry): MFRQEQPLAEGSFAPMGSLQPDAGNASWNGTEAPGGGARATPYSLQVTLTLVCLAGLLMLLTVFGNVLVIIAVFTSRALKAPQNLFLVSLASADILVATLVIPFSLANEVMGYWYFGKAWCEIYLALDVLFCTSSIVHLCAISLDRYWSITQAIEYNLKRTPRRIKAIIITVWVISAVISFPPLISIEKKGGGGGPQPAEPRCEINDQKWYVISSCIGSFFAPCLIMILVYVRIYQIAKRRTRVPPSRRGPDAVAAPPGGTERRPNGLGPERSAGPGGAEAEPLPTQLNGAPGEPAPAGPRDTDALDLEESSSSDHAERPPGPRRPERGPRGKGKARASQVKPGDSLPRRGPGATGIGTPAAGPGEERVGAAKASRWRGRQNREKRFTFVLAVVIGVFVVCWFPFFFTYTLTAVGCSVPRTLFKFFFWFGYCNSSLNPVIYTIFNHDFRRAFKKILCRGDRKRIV
experimental-conditions: Compound concentration 10 µM
Description: PDSP Primary Binding target: ADRA2A - Compounds are tested at 10 uM concentration, plate are incubated at room temperature in the dark for 90 minutes. Reaction are stopped by vacuum filtration onto 0.3% polyethyleneimine soaked filter mats using Filtermate harvester. Scintilation cocktail is then melted onto microwave-dried filters on a hot plate and the radio activity is counted in Microbia counter.
measured-attribute: inhibition (%)
Record the value in %, omitting the unit from your answer.

# compound, measured-attribute, observed-value
measured = [
    ("CC(C)NCC(O)COc1cccc2ccccc12 (stereo not given)", "inhibition", 16.4),
    ("NC(=O)[C@@H]1CCCN1C(=O)[C@H](Cc1c[nH]cn1)NC(=O)[C@@H]1CCC(=O)N1", "inhibition", 12.4),
    ("CN1CC(=O)N=C1NC(=O)Nc1cccc(Cl)c1", "inhibition", 3.42),
    ("FC(F)(F)c1cccc(-c2noc(-c3cc(-c4ccccc4)c(C(F)(F)F)s3)n2)c1", "inhibition", -2.79),
]

# ---- query compound ----
Sample CNC[C@H](O)c1ccc(O)c(O)c1 ; inhibition observed: 49.1

---

system-name: 5-hydroxytryptamine receptor 2B (Homo sapiens) (UniProt P41595)
Sequence (P41595 whole entry): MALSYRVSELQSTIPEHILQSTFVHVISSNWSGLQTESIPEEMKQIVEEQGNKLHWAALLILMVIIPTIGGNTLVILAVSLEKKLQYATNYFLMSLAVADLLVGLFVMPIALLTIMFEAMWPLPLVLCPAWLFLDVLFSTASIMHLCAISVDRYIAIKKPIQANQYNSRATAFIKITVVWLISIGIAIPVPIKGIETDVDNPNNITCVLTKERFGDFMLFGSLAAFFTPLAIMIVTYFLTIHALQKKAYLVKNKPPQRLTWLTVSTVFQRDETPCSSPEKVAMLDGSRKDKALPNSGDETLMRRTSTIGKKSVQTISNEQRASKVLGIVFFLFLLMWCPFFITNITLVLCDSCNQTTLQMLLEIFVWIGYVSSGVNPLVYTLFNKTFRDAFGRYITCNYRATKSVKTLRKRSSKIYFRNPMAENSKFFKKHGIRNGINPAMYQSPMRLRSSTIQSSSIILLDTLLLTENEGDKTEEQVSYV
experimental-conditions: Compound concentration 10 µM; call rule not given here
Permitted responses: active, inactive

Answered cases to consult:
# line-notation, classification
data = [
    ("Cc1cccc([C@H](C)c2c[nH]cn2)c1C", "active"),
    ("COc1ccc(S(=O)(=O)N2c3ccc(Cl)cc3[C@](O)(c3ccccc3Cl)[C@@H]2C(=O)N2CCC[C@H]2C(N)=O)cc1OC", "inactive"),
]

# ---- query molecule ----
Exam item: Please share the test call associated with CCc1cc2c(cc1CC)CC(NC[C@H](O)c1ccc(O)c3[nH]c(=O)ccc13)C2 .
Marked response: active
